All figures here come from the supplement of paper PMC9112550.

# System: Escherichia coli TOP10
# experiment.summary: shrunken log2 fold change of peptide-encoding DNA abundance (4.5 h post-induction vs induction); higher = less antimicrobial activity (less host growth inhibition)
# recorded.conditions: time post-induction: 4.5 h; library: site-saturation at positions 5, 18, 19, 20
Use -0.1 as the dividing line for shrunken log2 fold change, with the line itself on the t side and lower values as f.

Please review the entries below; each comes with its answer.
            query_sequence             target_desc  label_class
0  RRIRIRPPRLPRPRPRPINLPRP  Escherichia coli TOP10            f
1  RRIRMRPPRLPRPRPRPEYWPRP  Escherichia coli TOP10            t
2  RRIRQRPPRLPRPRPRPWWPPRP  Escherichia coli TOP10            f

INPUT: Item `RRIRYRPPRLPRPRPRPSGHPRP` with shrunken log2 fold change of -0.1 or above?
OUTPUT: f

INPUT: Item `RRIRPRPPRLPRPRPRPEKIPRP` with shrunken log2 fold change of -0.1 or above?
OUTPUT: t

INPUT: Item `RRIRFRPPRLPRPRPRPNLIPRP` with shrunken log2 fold change of -0.1 or above?
OUTPUT: f

INPUT: Item `RRIRSRPPRLPRPRPRPWMEPRP` with shrunken log2 fold change of -0.1 or above?
OUTPUT: f

INPUT: Item `RRIRSRPPRLPRPRPRPTPFPRP` with shrunken log2 fold change of -0.1 or above?
OUTPUT: t

---

# System: Escherichia coli TOP10
# experiment.summary: shrunken log2 fold change of peptide-encoding DNA abundance (4.5 h post-induction vs induction); higher = less antimicrobial activity (less host growth inhibition)
# recorded.conditions: time post-induction: 4.5 h; library: site-saturation at positions 5, 18, 19, 20
shrunken log2 fold change overview
Output spec: single numeric token, no unit.

            query_sequence            measured_metric  test_value
0  RRIRHRPPRLPRPRPRPGAMPRP  shrunken log2 fold change       0.392
1  RRIRWRPPRLPRPRPRPHSPPRP  shrunken log2 fold change       -0.09

Attention now shifts to the item below.
The recorded shrunken log2 fold change for entry `RRIRKRPPRLPRPRPRPGMDPRP` equals 0.195

---

# Tested on: Escherichia coli TOP10
# experiment.summary: shrunken log2 fold change of peptide-encoding DNA abundance (4.5 h post-induction vs induction); higher = less antimicrobial activity (less host growth inhibition)
# recorded.conditions: time post-induction: 4.5 h; library: site-saturation at positions 5, 18, 19, 20
Each entry falls in a class defined on shrunken log2 fold change; the bands are group 1: < -0.06; group 2: ≥ -0.06 and < 0.2; group 3: ≥ 0.2

Please review the entries below; each comes with its answer.
            query_sequence  label_class
0  RRIRERPPRLPRPRPRPSYRPRP      group 3
1  RRIRARPPRLPRPRPRPTKFPRP      group 2
2  RRIRFRPPRLPRPRPRPIGLPRP      group 1
3  RRIRGRPPRLPRPRPRPFCFPRP      group 3
4  RRIRHRPPRLPRPRPRPKLDPRP      group 3
5  RRIRPRPPRLPRPRPRPPQCPRP      group 3

INPUT: Class label required: `RRIRIRPPRLPRPRPRPNCCPRP`
OUTPUT: group 1

INPUT: Class label required: `RRIRMRPPRLPRPRPRPQATPRP`
OUTPUT: group 2

INPUT: Class label required: `RRIRGRPPRLPRPRPRPQWSPRP`
OUTPUT: group 2

INPUT: Class label required: `RRIRMRPPRLPRPRPRPLRLPRP`
OUTPUT: group 3

INPUT: Class label required: `RRIRIRPPRLPRPRPRPTVTPRP`
OUTPUT: group 1

INPUT: Class label required: `RRIRMRPPRLPRPRPRPGWPPRP`
OUTPUT: group 3

INPUT: Class label required: `RRIRYRPPRLPRPRPRPTRPPRP`
OUTPUT: group 3

INPUT: Class label required: `RRIRARPPRLPRPRPRPIGMPRP`
OUTPUT: group 2

INPUT: Class label required: `RRIRDRPPRLPRPRPRPKPNPRP`
OUTPUT: group 3

INPUT: Class label required: `RRIRGRPPRLPRPRPRPKICPRP`
OUTPUT: group 1

INPUT: Class label required: `RRIRVRPPRLPRPRPRPQSLPRP`
OUTPUT: group 2

INPUT: Class label required: `RRIRARPPRLPRPRPRPIGFPRP`
OUTPUT: group 1

INPUT: Class label required: `RRIRLRPPRLPRPRPRPNLIPRP`
OUTPUT: group 1

INPUT: Class label required: `RRIRGRPPRLPRPRPRPTCCPRP`
OUTPUT: group 3

INPUT: Class label required: `RRIRGRPPRLPRPRPRPCAWPRP`
OUTPUT: group 2

INPUT: Class label required: `RRIRRRPPRLPRPRPRPYITPRP`
OUTPUT: group 1

INPUT: Class label required: `RRIRYRPPRLPRPRPRPDTWPRP`
OUTPUT: group 2

INPUT: Class label required: `RRIRRRPPRLPRPRPRPLEMPRP`
OUTPUT: group 2

---

# System: Escherichia coli TOP10
# experiment.summary: shrunken log2 fold change of peptide-encoding DNA abundance (4.5 h post-induction vs induction); higher = less antimicrobial activity (less host growth inhibition)
# recorded.conditions: time post-induction: 4.5 h; library: site-saturation at positions 5, 18, 19, 20
Use 0.2 as the dividing line for shrunken log2 fold change, with the line itself on the label 1 side and lower values as label 0.

Please review the entries below; each comes with its answer.
>>> print(df.to_string())
            query_sequence  label_class
0  RRIRKRPPRLPRPRPRPKMYPRP      label 0
1  RRIRKRPPRLPRPRPRPDVPPRP      label 1

INPUT: Item `RRIRIRPPRLPRPRPRPLCMPRP` with shrunken log2 fold change of 0.2 or above?
OUTPUT: label 0

INPUT: Item `RRIRFRPPRLPRPRPRPTFGPRP` with shrunken log2 fold change of 0.2 or above?
OUTPUT: label 0

---

# Tested on: Escherichia coli TOP10
# experiment.summary: shrunken log2 fold change of peptide-encoding DNA abundance (4.5 h post-induction vs induction); higher = less antimicrobial activity (less host growth inhibition)
# recorded.conditions: time post-induction: 4.5 h; library: site-saturation at positions 5, 18, 19, 20
shrunken log2 fold change overview
Output spec: single numeric token, no unit.

The recorded shrunken log2 fold change for entry `RRIRLRPPRLPRPRPRPMNCPRP` equals -0.507

The recorded shrunken log2 fold change for entry `RRIRERPPRLPRPRPRPNEVPRP` equals 0.0321

The recorded shrunken log2 fold change for entry `RRIRGRPPRLPRPRPRPVQAPRP` equals 0.891

The recorded shrunken log2 fold change for entry `RRIRIRPPRLPRPRPRPVVIPRP` equals -0.307

The recorded shrunken log2 fold change for entry `RRIRPRPPRLPRPRPRPDGPPRP` equals -0.101

---

shrunken log2 fold change overview
# Tested on: Escherichia coli TOP10
# experiment.summary: shrunken log2 fold change of peptide-encoding DNA abundance (4.5 h post-induction vs induction); higher = less antimicrobial activity (less host growth inhibition)
# recorded.conditions: time post-induction: 4.5 h; library: site-saturation at positions 5, 18, 19, 20
Output spec: single numeric token, no unit.

In the examples that follow, each entry is paired with its recorded shrunken log2 fold change.
>>> print(df.to_string())
            query_sequence  test_value
0  RRIRCRPPRLPRPRPRPSNTPRP      -0.417
1  RRIRMRPPRLPRPRPRPTQWPRP       0.479
2  RRIRIRPPRLPRPRPRPSCAPRP      -0.249

The recorded shrunken log2 fold change for entry `RRIRSRPPRLPRPRPRPQYPPRP` equals -0.157

---

shrunken log2 fold change overview
# Tested on: Escherichia coli TOP10;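 note: peptides expressed intracellularly from a pBAD plasmid library in pooled LB shake-flask culture, induced with 0.3% L-arabinose, DNA abundance read by NGS, three biological replicates, DESeq2 with apeglm shrinkage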
# experiment.summary: shrunken log2 fold change of peptide-encoding DNA abundance (4.5 h post-induction vs induction); higher = less antimicrobial activity (less host growth inhibition)
# recorded.conditions: time post-induction: 4.5 h; library: site-saturation at positions 5, 18, 19, 20
Output spec: single numeric token, no unit.

>>> print(df.to_string())
            query_sequence  test_value
0  RRIRSRPPRLPRPRPRPTSVPRP     0.00616
1  RRIRQRPPRLPRPRPRPYVRPRP      -0.216
2  RRIRDRPPRLPRPRPRPGLRPRP       0.277

Param item: `RRIRGRPPRLPRPRPRPWAVPRP` ; param system: Escherichia coli TOP10; output shrunken log2 fold change: -0.142

Param item: `RRIRDRPPRLPRPRPRPTPYPRP` ; param system: Escherichia coli TOP10; output shrunken log2 fold change: -0.13

Param item: `RRIRGRPPRLPRPRPRPKNIPRP` ; param system: Escherichia coli TOP10; output shrunken log2 fold change: -0.101

Param item: `RRIRPRPPRLPRPRPRPRCAPRP` ; param system: Escherichia coli TOP10; output shrunken log2 fold change: 1.73

Param item: `RRIRDRPPRLPRPRPRPSVLPRP` ; param system: Escherichia coli TOP10; output shrunken log2 fold change: -0.246

Param item: `RRIRQRPPRLPRPRPRPASYPRP` ; param system: Escherichia coli TOP10; output shrunken log2 fold change: -0.121

Param item: `RRIRKRPPRLPRPRPRPQAVPRP` ; param system: Escherichia coli TOP10; output shrunken log2 fold change: 0.0562

Param item: `RRIRIRPPRLPRPRPRPGDRPRP` ; param system: Escherichia coli TOP10; output shrunken log2 fold change: -0.123

Param item: `RRIRLRPPRLPRPRPRPYKWPRP` ; param system: Escherichia coli TOP10; output shrunken log2 fold change: -0.0271

Param item: `RRIRFRPPRLPRPRPRPQCPPRP` ; param system: Escherichia coli TOP10; output shrunken log2 fold change: -0.225
